# key: entry, value: Tissue distribution, Thyroid
Assay: Tissue distribution in ICR mice (normal animals)
Assay type: in vivo
Conditions: 1 h after injection
Text: ICR mice (male, 5 weeks old) were purchased from Japan SLC (Shizuoka, Japan) and acclimated for one week prior to use. The doses in the distribution experiments were as follows: ^211At-AAMT-O-Me-L (0.407 ± 0.005 MBq/mouse, 31.64 ± 0.76 g, n = 6), ^211At-AAMT-O-Me-D (0.351 ± 0.004 MBq/mouse, 31.44 ± 0.94 g, n = 6), ^211At-AAMT-O-Et-L (0.685 ± 0.010 MBq/mouse, 24.14 ± 3.31 g, n = 6), ^211At-AAMT-O-Pr-L (1.09 ± 0.06 MBq/mouse, 26.33 ± 0.39 g, n = 6)
Use %ID/g as the unit, but write only the number.

Worked examples, 3 compounds total:
Form: compound = COc1ccc(C[C@](C)(N)C(=O)O)cc1[211At] [^211At-AAMT-O-Me-L] ; Tissue distribution, Thyroid = 13.12

Form: compound = CCCOc1ccc(C[C@](C)(N)C(=O)O)cc1[211At] [^211At-AAMT-O-Pr-L] ; Tissue distribution, Thyroid = 23.08

Form: compound = COc1ccc(C[C@@](C)(N)C(=O)O)cc1[211At] [^211At-AAMT-O-Me-D] ; Tissue distribution, Thyroid = 8.06

Continuing:
Form: compound = CCOc1ccc(C[C@](C)(N)C(=O)O)cc1[211At] [^211At-AAMT-O-Et-L] ; Tissue distribution, Thyroid = 8.98
